B1: TPR t1 (parent)
chain: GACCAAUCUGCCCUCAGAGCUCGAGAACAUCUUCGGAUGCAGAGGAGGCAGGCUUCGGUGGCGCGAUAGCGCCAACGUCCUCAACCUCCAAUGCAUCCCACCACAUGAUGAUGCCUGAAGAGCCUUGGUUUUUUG

Variants of: B1
Test: polymerase ribozyme fitness, log enrichment relative to wild type (log ratio); higher = more active; in vitro selection for triplet polymerase activity
Please mark true (1) if the recorded polymerase ribozyme fitness (log ratio) is equal to or greater than -2, and false (0) if it falls below.

[
  {
    "VARIANT CODE": "C11G C80A G117C C123U",
    "CATEGORY LABEL": "false (0)"
  },
  {
    "VARIANT CODE": "G57U G71A",
    "CATEGORY LABEL": "true (1)"
  },
  {
    "VARIANT CODE": "C34A C56G G117A",
    "CATEGORY LABEL": "false (0)"
  },
  {
    "VARIANT CODE": "A2C U9G C20A G71A A121U",
    "CATEGORY LABEL": "false (0)"
  },
  {
    "VARIANT CODE": "C28G",
    "CATEGORY LABEL": "false (0)"
  }
]

// switching to the query variant
Would you say A5U G10A C86U C102U G113A G128C shows polymerase ribozyme fitness (log ratio) at minimum -2?
false (0)

Origin of measurements: the RNAGym collection of RNA variant scans (doi:10.1073/pnas.2313332121)
